Give kcat for every item shown.
B1: glmS ribozyme (parent)
chain: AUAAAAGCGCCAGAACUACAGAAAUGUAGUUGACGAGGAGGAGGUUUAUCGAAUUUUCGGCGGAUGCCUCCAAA

# Variants of: B1
# test_details: kcat; higher = faster cleavage; RNA array
# condition_context: with glucosamine-6-phosphate
Variants at the floor of the assay were thinned out.
Report only the number, with the unit s⁻¹ understood.

Input C16G G32A C68U . Output kcat: 0.000119

Input C16G U57A . Output kcat: 5.68e-05

Input G32U U47A . Output kcat: 0.000688

Input G13A G40A . Output kcat: 0.000179

Input A14G G29U . Output kcat: 0.00845

Input G37A U65A . Output kcat: 0.000179

Input A42G U57G . Output kcat: 4.9e-05

Input G41C U46A . Output kcat: 0.00012

Input G59A U69C . Output kcat: 5.07e-05

Input A36U C67G C68G C71U . Output kcat: 6.17e-05

Input C16U U56C . Output kcat: 0.00495

Input U31A G41C . Output kcat: 0.000118

Input U2A G29U . Output kcat: 0.00852

Input A12G G29C . Output kcat: 0.000167

Input C61A C71U . Output kcat: 1.05e-05

Input `G43A` . Output kcat: 9.3e-05

Input A39U G41U . Output kcat: 0.00058

Input A48G U65G . Output kcat: 8.76e-05

Input G43U U55A . Output kcat: 2.33e-05

Input U46C A53U . Output kcat: 0.00168
